test: physchem; details: heptanoic acid, organic solvent or mixture
property.label: solubility (mg/mL)
One number for each entry, in mg/mL.

Input line: Any idea what solubility was measured for C[C@]12CC[C@@H]3c4ccc(O)cc4C[C@@H](CCCCCCCCC[S+]([O-])CCCC(F)(F)C(F)(F)F)[C@H]3[C@@H]1CC[C@@H]2O (stereo partly shown) ?
Output line: 154

----------
assay: physchem; conditions: castor oil, oil or lipid
property.label: solubility (mg/mL)
Answers are plain numbers, in mg/mL.

Input line: Any idea what solubility was measured for C[C@]12CC[C@@H]3c4ccc(O)cc4C[C@@H](CCCCCCCCC[S+]([O-])CCCC(F)(F)C(F)(F)F)[C@H]3[C@@H]1CC[C@@H]2O (stereo partly shown) [Fulvestrant] ?
Output line: 21.2
